Measured concentration at 6 day, listed per entry for reference.
- methodNotes: Biodistribution after day 6 in mouse kidney
- Type: ADME, organism-based

These solved cases illustrate the format of a correct answer.
query: Recorded concentration at 6 day of C=CC1=C(C)c2cc3nc(cc4[nH]c(cc5[nH]c(cc1n2)c(C)c5CCC(=O)NC1C(O)OC(CO)C(O)C1O)c(CCC(=O)NC1C(O)OC(CO)C(O)C1O)c4C)C(C=C)=C3C (stereo unspecified) , please.
result: 4300 ng/g

query: Recorded concentration at 6 day of `CCc1c(CC)c2cc3nc(cc4[nH]c(c(C)c4CC)c4[nH]c(cc5nc(cc1[nH]2)C(CCC(=O)NCCOCCOCCO)=C5C)c(CC)c4C)C(C)=C3CCC(=O)NCCOCCOCCO` , please.
result: 52000 ng/g

query: Recorded concentration at 6 day of `CCc1c(CC)c2cc3nc(cc4[nH]c(c(C)c4CC)c4[nH]c(cc5nc(cc1[nH]2)C(CCC(=O)N(CCO)CCO)=C5C)c(CC)c4C)C(C)=C3CCC(=O)N(CCO)CCO` , please.
result: 460 ng/g

query: Recorded concentration at 6 day of `CCc1c(CC)c2cc3nc(cc4[nH]c(c(C)c4CC)c4[nH]c(cc5nc(cc1[nH]2)C(CCC(=O)NCCN(CCN)CCN)=C5C)c(CC)c4C)C(C)=C3CCC(=O)NCCN(CCN)CCN` , please.
result: 1700 ng/g

query: Recorded concentration at 6 day of `CCC1=C(CC)c2cc3[nH]c(cc4[nH]c(c(C)c4CC)c4[nH]c(cc5nc(cc1n2)C(CCC(=O)NCCOCCOCCN)=C5C)c(CC)c4C)c(C)c3CCC(=O)NCCOCCOCCN` , please.
result: 3800 ng/g

Moving on to another compound below.
query: Recorded concentration at 6 day of CCc1c(CC)c2cc3nc(cc4[nH]c(c(C)c4CC)c4[nH]c(cc5nc(cc1[nH]2)C(CCC(=O)NC1C(O)OC(CO)C(O)C1O)=C5C)c(CC)c4C)C(C)=C3CCC(=O)NC1C(O)OC(CO)C(O)C1O (stereo unspecified) , please.
result: 1500 ng/g

* * *

- methodNotes: Biodistribution after day 1 in mouse spleen
- Format: ADME, organism-based
valueType: concentration at 1 day (ng/g)
Report only the number, with the unit ng/g understood.

query: Recorded concentration at 1 day of CCc1c(CC)c2cc3nc(cc4[nH]c(c(C)c4CC)c4[nH]c(cc5nc(cc1[nH]2)C(CCC(=O)NC1C(O)OC(CO)C(O)C1O)=C5C)c(CC)c4C)C(C)=C3CCC(=O)NC1C(O)OC(CO)C(O)C1O (stereo unspecified) , please.
result: 3600

query: Recorded concentration at 1 day of `CCc1c(CC)c2cc3nc(cc4[nH]c(c(C)c4CC)c4[nH]c(cc5nc(cc1[nH]2)C(CCC(=O)NCCOCCOCCO)=C5C)c(CC)c4C)C(C)=C3CCC(=O)NCCOCCOCCO` , please.
result: 4600

query: Recorded concentration at 1 day of `CCC1=C(CC)c2cc3[nH]c(cc4[nH]c(c(C)c4CC)c4[nH]c(cc5nc(cc1n2)C(CCC(=O)NCCOCCOCCN)=C5C)c(CC)c4C)c(C)c3CCC(=O)NCCOCCOCCN` , please.
result: 1300

query: Recorded concentration at 1 day of `CCc1c(CC)c2cc3nc(cc4[nH]c(c(C)c4CC)c4[nH]c(cc5nc(cc1[nH]2)C(CCC(=O)N(CCO)CCO)=C5C)c(CC)c4C)C(C)=C3CCC(=O)N(CCO)CCO` , please.
result: 1290

Others:
query: Recorded concentration at 1 day of C=CC1=C(C)c2cc3nc(cc4[nH]c(cc5[nH]c(cc1n2)c(C)c5CCC(=O)NC1C(O)OC(CO)C(O)C1O)c(CCC(=O)NC1C(O)OC(CO)C(O)C1O)c4C)C(C=C)=C3C (stereo unspecified) , please.
result: 22000

query: Recorded concentration at 1 day of `CCc1c(CC)c2cc3nc(cc4[nH]c(c(C)c4CC)c4[nH]c(cc5nc(cc1[nH]2)C(CCC(=O)NCCN(CCN)CCN)=C5C)c(CC)c4C)C(C)=C3CCC(=O)NCCN(CCN)CCN` , please.
result: 4100

* * *

Measured log10(concentration at 3 day), listed per entry for reference.
- methodNotes: Biodistribution after day 3 in mouse heart
- Assay type: ADME, organism-based
Please keep in mind that the values are log10 of concentration at 3 day expressed in ng/g.

These solved cases illustrate the format of a correct answer.
query: Recorded log10(concentration at 3 day) of `CCC1=C(CC)c2cc3[nH]c(cc4[nH]c(c(C)c4CC)c4[nH]c(cc5nc(cc1n2)C(CCC(=O)NCCOCCOCCN)=C5C)c(CC)c4C)c(C)c3CCC(=O)NCCOCCOCCN` , please.
result: 4.19

query: Recorded log10(concentration at 3 day) of C=CC1=C(C)c2cc3nc(cc4[nH]c(cc5[nH]c(cc1n2)c(C)c5CCC(=O)NC1C(O)OC(CO)C(O)C1O)c(CCC(=O)NC1C(O)OC(CO)C(O)C1O)c4C)C(C=C)=C3C (stereo unspecified) , please.
result: 3.16

query: Recorded log10(concentration at 3 day) of `CCc1c(CC)c2cc3nc(cc4[nH]c(c(C)c4CC)c4[nH]c(cc5nc(cc1[nH]2)C(CCC(=O)N(CCO)CCO)=C5C)c(CC)c4C)C(C)=C3CCC(=O)N(CCO)CCO` , please.
result: 2.98

query: Recorded log10(concentration at 3 day) of `CCc1c(CC)c2cc3nc(cc4[nH]c(c(C)c4CC)c4[nH]c(cc5nc(cc1[nH]2)C(CCC(=O)NCCN(CCN)CCN)=C5C)c(CC)c4C)C(C)=C3CCC(=O)NCCN(CCN)CCN` , please.
result: 4.03

query: Recorded log10(concentration at 3 day) of CCc1c(CC)c2cc3nc(cc4[nH]c(c(C)c4CC)c4[nH]c(cc5nc(cc1[nH]2)C(CCC(=O)NC1C(O)OC(CO)C(O)C1O)=C5C)c(CC)c4C)C(C)=C3CCC(=O)NC1C(O)OC(CO)C(O)C1O (stereo unspecified) , please.
result: 3.95

Moving on to another compound below.
query: Recorded log10(concentration at 3 day) of `CCc1c(CC)c2cc3nc(cc4[nH]c(c(C)c4CC)c4[nH]c(cc5nc(cc1[nH]2)C(CCC(=O)NCCOCCOCCO)=C5C)c(CC)c4C)C(C)=C3CCC(=O)NCCOCCOCCO` , please.
result: 3.89
